experiment: stimulators of nuclear beta-catenin in C2C12, primary screen, imaging, WNT3A-conditioned medium, mouse C2C12, NPC library (AID 1117326); conditions: stimulation, at 2 µM, stronger effect = higher value; further: reference of the scale not given here
Please go through the items and note down their nuclear beta-catenin stimulation.
Just so you know, I need the unit written after the number.

Query :: Given the entry "FC(F)(F)c1ccccc1-n1ccnc1" , report its measured nuclear beta-catenin stimulation.
Result :: -0.4%

Query :: Given the entry COCC(=O)Nc1c(I)c(C(=O)NCC(O)CO)c(I)c(C(=O)N(C)CC(O)CO)c1I (centres undefined) , report its measured nuclear beta-catenin stimulation.
Result :: 2.8%

Query :: Given the entry "CCc1cc(Cl)c(OC)c(C(=O)NC[C@@H]2CCCN2CC)c1O" , report its measured nuclear beta-catenin stimulation.
Result :: 1.7%

Query :: Given the entry "C[C@H]1O[C@H](O[C@H]2[C@H](O)[C@@H](O)[C@@H](O[C@H]3[C@H](O)[C@@H](O)[C@H](O)O[C@@H]3CO)O[C@@H]2CO)[C@H](O)[C@@H](O)[C@@H]1N[C@H]1C=C(CO)[C@@H](O)[C@H](O)[C@H]1O" , report its measured nuclear beta-catenin stimulation.
Result :: -1.1%

Query :: Given the entry "CN(C)CCn1nnnc1SCC1=C(C(=O)O)N2C(=O)[C@@H](NC(=O)Cc3csc(N)n3)[C@H]2SC1" , report its measured nuclear beta-catenin stimulation.
Result :: 1.1%

Query :: Given the entry "COCCCN1CCC(NC(=O)c2cc(Cl)c(N)c3c2OCC3)CC1" , report its measured nuclear beta-catenin stimulation.
Result :: -2%

Query :: Given the entry "CCOC(=O)Nc1ccc(NCc2ccc(F)cc2)nc1N" , report its measured nuclear beta-catenin stimulation.
Result :: 2.4%

Query :: Given the entry "CN(c1nccc(=O)[nH]1)C1CCN(c2nc3ccccc3n2Cc2ccc(F)cc2)CC1" , report its measured nuclear beta-catenin stimulation.
Result :: -0.5%

Query :: Given the entry "COc1cc(Nc2c(C#N)cnc3cc(OCCCN4CCN(C)CC4)c(OC)cc23)c(Cl)cc1Cl" , report its measured nuclear beta-catenin stimulation.
Result :: -1%
